# assayProtocol: clinical
# conditionsUsed: human, plasma, po
propertyName: Tmax

Fill in the blank: the reported Tmax of CN1CCCC1c1cccnc1.O=C(O)C(O)C(O)C(=O)O (stereo not shown) [NP002, Nicotine Bitartrate] is ____.
~1.5 h
